# ASSAY_PROCEDURE: plasma clearance test on mice
# Format: in vivo
# MEASUREMENT_CONDITIONS: mouse, plasma, other: injection (site not specified); three minutes after injecting
TEST_READOUT: concentration at 3 min

q: Given the entry `CC1(C)C(/C=C/C=C/C=C/C=C2\N(CCCCS(=O)(=O)[O-])c3ccc4ccccc4c3C2(C)C)=[N+](CCCCS(=O)(=O)[O-])c2ccc3ccccc3c21.[Na+]` , report its measured concentration at 3 min.
a: < 1000 ng/mL

Recorded values, source patent US11331387B2.
